- Test system: RXF 393
- METHOD: NCI tumour cell line growth inhibition, 48 h
The source made the active and inactive calls. Cut-off read from the data, not from the text of the source: active = GI50 up to about 1.1 µM and inactive = higher.
The reply should name one outcome from Y for active, N for inactive

# count of solved cases: 6
CC[C@H](C)C1=C(O)[N@+]2([O-])Oc3ccc(-c4c(O)c(O)c(-c5ccc(OC(C)=O)cc5)c(OC(C)=O)c4OC(C)=O)cc3O[C@]2([C@@H](C)CC)C(=O)N1O    N
CC(C)C1CCC(=O)CC1CCCCC1CC(=O)CC1O[Si](C)(C)C(C)(C)C (stereo not drawn)    N
Cc1nc(C)c(N2CCN(CN)CC2)c(O)n1    N
C=C1C(=O)O[C@@H]2C=C(C)C3=CC(=O)[C@](C)(C[C@H](OC(=O)/C(C)=C\C)[C@@H]12)O3    Y
CC(C)C(=O)CC(c1ccc(Br)cc1)N1N=C(C(C)C)CC1c1ccc(Br)cc1 (stereo not drawn)    N
c1ccc(C(C2=Nc3cccc4cccc(c34)N2)c2ccccc2)cc1    N

Enquiry: Please let me know the test result on file for "CCOC(=O)C1(C(=O)OCC)CSC1" .
Return: N

Enquiry: Assay result, entry "N/C(=N\O)N/N=C/c1cc(I)cc(I)c1O" — outcome?
Return: N

Enquiry: Check the results log: what was the call for O=C1CC(C2(O)C(=O)Nc3ccc([N+](=O)[O-])cc32)c2ccccc21 (stereo not drawn) ?
Return: N

Enquiry: Record lookup: outcome of this test for "CC1=C(C(=O)NNS(=O)(=O)c2ccc(C)cc2)CC(C(=O)NNS(=O)(=O)c2ccc(C)cc2)=C(C)N1" ?
Return: N

Enquiry: State the result this test recorded for "Nc1nc(O)c([I+]c2ccccc2)c(=O)[nH]1" .
Return: N

Enquiry: What is the recorded call for this compound in the test? CCCCCCCCP(=O)(O)OP(=O)(O)OCC1OC(n2ccc(N)nc2=O)C(O)C1O (stereo not drawn)
Return: N

Enquiry: So what was the verdict on Cc1c(N)nc([C@H](CC(N)=O)NC[C@H](N)C(N)=O)nc1C(=O)N[C@H](C(=O)N[C@H](C)[C@@H](O)[C@H](C)C(=O)N[C@H](C(=O)NCCc1nc(-c2nc(C(=O)NCCC[S+](C)C)cs2)cs1)[C@@H](C)O)C(OC1OC(CO)C(O)C(O)C1OC1OC(CO)C(O)C(OC(N)=O)C1O)c1c[nH]cn1 (stereo partly drawn) in this test?
Return: Y

Enquiry: For OCC(CO)CC1COc2ccccc2O1 (stereo not drawn) , which call appears in the assay record?
Return: N

Enquiry: Recorded call for "CCOC(=O)N1CCN(c2c(C)nc(C)nc2O)CC1" ?
Return: N

Enquiry: What is the recorded call for this compound in the test? C[N+]1(C)CCCC(C#N)(c2ccccc2)CC1 (stereo not drawn)
Return: N

Enquiry: // outcome(item) with item = "Cc1ccc2nc3c(C)c(Cl)c(=O)cc-3sc2c1"
Return: N

Enquiry: Field: outcome | Entry: "Cc1oc2c(C)c(O)c3c(c2c1C1(C)OCCO1)C(=O)C=C(Cl)C3=O"
Return: N
